// values below are reported solubility
test: Solubility in water at 30°C of carboxyl group-containing compounds; settings: distilled water, 30 °C, water, thermodynamic from solid
Write the number in mg/mL without appending the unit.

O=C(O)C1CCCCC1C(=O)O (stereo not shown) [hexahydrophthalic acid]	1.5
O=C(O)/C=C\C(=O)O	800
O=C(O)c1ccccc1C(=O)O	9

Field: next compound
Task: Would you kindly share the measured solubility for O=C(O)c1ccc(C(=O)O)c(C(=O)O)c1 ?
Output: 20
